molecular target: Neurogenic locus notch homolog protein 3 (Homo sapiens) (UniProt Q9UM47); test: small molecules binding NOTCH3 protein – biochemical, 635/667 nm fluorescence, primary screen (AID 1096); conditions: small-molecule microarray, 635 nm fluorescence, higher = more signal
Sequence (Q9UM47 whole entry, looked up): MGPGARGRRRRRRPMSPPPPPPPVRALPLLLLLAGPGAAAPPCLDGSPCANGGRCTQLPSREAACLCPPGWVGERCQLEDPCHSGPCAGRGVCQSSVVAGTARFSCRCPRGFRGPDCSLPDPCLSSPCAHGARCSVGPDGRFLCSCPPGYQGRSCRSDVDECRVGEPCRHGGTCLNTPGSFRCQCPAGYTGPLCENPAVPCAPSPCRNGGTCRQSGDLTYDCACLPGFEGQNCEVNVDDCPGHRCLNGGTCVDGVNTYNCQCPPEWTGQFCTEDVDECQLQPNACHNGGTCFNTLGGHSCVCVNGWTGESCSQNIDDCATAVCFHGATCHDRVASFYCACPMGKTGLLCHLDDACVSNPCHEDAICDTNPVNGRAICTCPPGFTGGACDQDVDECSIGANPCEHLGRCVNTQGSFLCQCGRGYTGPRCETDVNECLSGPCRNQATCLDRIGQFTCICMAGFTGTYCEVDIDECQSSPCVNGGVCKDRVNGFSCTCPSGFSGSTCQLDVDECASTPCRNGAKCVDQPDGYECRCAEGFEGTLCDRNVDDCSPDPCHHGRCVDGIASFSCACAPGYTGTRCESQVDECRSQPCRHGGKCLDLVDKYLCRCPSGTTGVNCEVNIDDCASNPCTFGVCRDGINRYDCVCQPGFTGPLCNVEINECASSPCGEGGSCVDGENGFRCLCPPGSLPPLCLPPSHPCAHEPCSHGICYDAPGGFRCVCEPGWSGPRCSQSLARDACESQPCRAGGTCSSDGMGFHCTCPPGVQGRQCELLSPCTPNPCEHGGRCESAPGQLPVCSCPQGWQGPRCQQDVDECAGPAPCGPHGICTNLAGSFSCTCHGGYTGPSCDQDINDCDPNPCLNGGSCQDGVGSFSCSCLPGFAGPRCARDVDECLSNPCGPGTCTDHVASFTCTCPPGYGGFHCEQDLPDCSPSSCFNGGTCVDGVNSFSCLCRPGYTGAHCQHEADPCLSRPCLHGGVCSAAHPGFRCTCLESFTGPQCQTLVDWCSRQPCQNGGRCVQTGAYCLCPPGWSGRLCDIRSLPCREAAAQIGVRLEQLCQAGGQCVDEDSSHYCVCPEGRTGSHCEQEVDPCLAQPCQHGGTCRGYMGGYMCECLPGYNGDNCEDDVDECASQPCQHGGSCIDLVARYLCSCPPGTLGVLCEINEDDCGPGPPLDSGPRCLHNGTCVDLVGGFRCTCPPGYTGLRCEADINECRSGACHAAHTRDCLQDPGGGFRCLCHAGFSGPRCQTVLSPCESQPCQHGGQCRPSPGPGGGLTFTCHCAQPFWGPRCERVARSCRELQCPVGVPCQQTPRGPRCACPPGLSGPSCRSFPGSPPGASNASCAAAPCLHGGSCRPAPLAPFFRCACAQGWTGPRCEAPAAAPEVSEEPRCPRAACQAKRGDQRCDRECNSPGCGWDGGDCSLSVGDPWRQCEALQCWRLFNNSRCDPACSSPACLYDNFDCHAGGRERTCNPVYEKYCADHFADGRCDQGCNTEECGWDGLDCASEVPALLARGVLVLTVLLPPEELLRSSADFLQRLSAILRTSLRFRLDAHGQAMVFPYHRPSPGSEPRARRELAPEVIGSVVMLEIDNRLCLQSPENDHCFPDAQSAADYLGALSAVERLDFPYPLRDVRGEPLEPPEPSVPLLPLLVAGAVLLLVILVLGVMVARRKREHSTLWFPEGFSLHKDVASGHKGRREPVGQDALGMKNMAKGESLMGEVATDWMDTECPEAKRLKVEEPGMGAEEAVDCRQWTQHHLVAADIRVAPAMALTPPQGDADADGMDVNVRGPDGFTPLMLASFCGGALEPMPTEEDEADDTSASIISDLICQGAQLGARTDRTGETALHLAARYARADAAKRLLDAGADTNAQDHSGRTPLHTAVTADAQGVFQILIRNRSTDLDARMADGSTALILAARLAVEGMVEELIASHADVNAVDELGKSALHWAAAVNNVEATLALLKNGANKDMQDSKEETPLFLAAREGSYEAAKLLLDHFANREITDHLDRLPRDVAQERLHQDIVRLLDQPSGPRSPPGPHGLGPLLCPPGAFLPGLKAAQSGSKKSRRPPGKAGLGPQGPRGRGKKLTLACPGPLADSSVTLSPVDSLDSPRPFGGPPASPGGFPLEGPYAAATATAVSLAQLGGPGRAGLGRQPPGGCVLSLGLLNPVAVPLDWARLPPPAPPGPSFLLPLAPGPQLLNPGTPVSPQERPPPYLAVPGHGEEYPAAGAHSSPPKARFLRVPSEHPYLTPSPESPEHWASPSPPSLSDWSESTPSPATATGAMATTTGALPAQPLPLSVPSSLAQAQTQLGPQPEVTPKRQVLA
Output true (1) for composite z-score not less than 1; output false (0) otherwise.

Worked examples follow.
C=C[C@H](C)[C@H](OC(=O)Nc1ccc(SC)cc1)c1ccc(OCCO)cc1 | false (0)
COC(=O)[C@@H]1N=C(c2ccc(OCCCO)cc2)O[C@@H]1c1ccccc1 | false (0)
COCCOC(=O)N1C(=O)[C@@]2(c3cc(C#CCCO)ccc31)[C@H](c1ccc(OCCO)cc1)N1[C@H](c3ccccc3)[C@H](c3ccccc3)OC(=O)[C@H]1[C@@H]2C(=O)Nc1nc2ccccc2s1 | true (1)
C=CC[C@]1(C(=O)N2CCCCC2)N=C(c2ccc(OCCCO)cc2)O[C@H]1c1ccccc1CN=[N+]=[N-] | true (1)

Problem: Has NC(=O)NCC#Cc1ccc2c(c1)[C@]1(C(=O)N2)[C@H](C(=O)N2CCN(c3ncccn3)CC2)[C@H]2C(=O)O[C@H](c3ccccc3)[C@H](c3ccccc3)N2[C@@H]1c1ccc(O)cc1 a recorded composite z-score greater than or equal to 1?
Result: true (1)

Problem: Has C[C@@H]1NC(=O)[C@@H](Cc2ccccc2)NC(=O)[C@@]23C(=O)N[C@@H](Cc4ccccc4)C2[C@H](C)[C@@]2(C)O[C@H]2C3/C=C/C/C=C\CNC1=O (some centres not stated) a recorded composite z-score greater than or equal to 1?
Result: false (0)

Problem: Has CCCN1C(=O)[C@@]2(Cc3ccccc31)N=C(c1ccc(OCCCO)cc1)O[C@H]2c1ccccc1 a recorded composite z-score greater than or equal to 1?
Result: false (0)

###

experiment: S. pombe growth modifiers, basal conditions – strain 972, OD600, 24 h, no modulator, primary screen (AID 1090);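 further: basal condition with compound alone and no growth modifier present; test concentration not given here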; conditions: S. pombe 972 growth, higher = more signal, called active from +8 up or from −8 down
Calls of active or inactive are those of the source.
Measured z-score of individual entries

Field: example entries. Status: answers known.
COCCOC(=O)N1C(=O)[C@@]2(c3cc(C#CCC(C(=O)OC)C(=O)OC)ccc31)[C@H](c1ccc(OCCO)cc1)N1[C@H](c3ccccc3)[C@H](c3ccccc3)OC(=O)[C@H]1[C@@H]2C(=O)N1CCc2cc(OC)c(OC)cc2C1 | 2 (inactive)
CC[C@@H]1C=C(C(=O)O)[C@H](c2ccccc2)N1S(=O)(=O)c1ccc(C)cc1 | 0.231 (inactive)
CCCC[C@@H](O)C1=C(COC)C[C@H]2C(=O)N(Cc3ccccc3)C(=O)[C@H]2[C@H]1CO | -0.677 (inactive)
COC(=O)[C@@H]1N=C(c2ccc(OCCCO)cc2)O[C@@H]1C | -0.0679 (inactive)
COc1ccc([Si](C)(C)[C@@H]2[C@@H](CCO)O[C@]3(C(=O)N(Cc4ccccc4)c4ccc(N5CCOC5=O)cc43)[C@H]2C)cc1 | -0.522 (inactive)
COc1ccc([Si](C)(C)[C@@H]2[C@@H](CC(=O)N(CCO)Cc3ccccc3)O[C@]3(C(=O)N(Cc4cccc(N5CCCCC5=O)c4)c4ccccc43)[C@H]2C)cc1 | -0.0344 (inactive)

Problem: # get_value(readout='z-score', item= COC(=O)C(CC#Cc1ccc2c(c1)[C@]1(C(=O)N2)[C@H](c2ccc(O)cc2)N2[C@H](c3ccccc3)[C@H](c3ccccc3)OC(=O)[C@H]2[C@@H]1C(=O)NC[C@H](O)c1ccccc1)C(=O)OC )
Result: 0.174 (inactive)

###

experiment: probe aLefty1 binding on compound microarray – biochemical, small-molecule microarray, 635/667 nm fluorescence, primary screen (AID 1153); details: higher = more signal;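 further: score merges spot fluorescence with signal-to-noise ratio from the scanned slide images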
reported-endpoint: composite z-score
Reply briefly: the number, and no unit.

Field: example entries. Status: answers known.
O=C(C1N=C(c2ccc(OCCCO)cc2)N(c2ccccc2)O1)N1CCCCC1 (stereo not given) | 0.0338
O=C1CS(=O)(=O)C(c2cccc([N+](=O)[O-])c2)N1c1ccccc1 (stereo not given) | 0.683
O=C(NCCN1CCOCC1)[C@@H]1c2ccccc2C(=O)N(Cc2ccccc2Cl)[C@H]1c1ccc(CO)cc1 | 0.121
C#CCN([C@@H](Cc1ccccc1)C(=O)OC)[C@@H](/C=C/C1CC1)[C@H](O)Cc1ccccc1 | -0.0538

Problem: # get_value(readout='composite z-score', item= N#Cc1ccc(NN2C(C(O)c3ccc(Br)cc3)C=CC3C(=O)N(c4ccccc4)C(=O)C32)cc1 (stereo not given) )
Result: 0.57

###

biological target: Fibroblast growth factor 2 (Homo sapiens); test: basic fibroblast growth factor binding to printed compounds – biochemical, small-molecule microarray, 635/667 nm fluorescence, primary screen (AID 1133); conditions: FGF2, fluorescence 635/667, higher = more signal
reported-endpoint: composite z-score
Reply briefly: the number, and no unit.

Field: example entries. Status: answers known.
C#CCN([C@@H](Cc1ccccc1)C(=O)OC)[C@@H](/C=C/C1CC1)[C@H](O)Cc1ccccc1 | -0.0248
COc1ccc([Si](C)(C)[C@@H]2[C@@H](CC(=O)N(CCO)Cc3ccccc3)O[C@]3(C(=O)N(Cc4cccc(N5CCCCC5=O)c4)c4ccccc43)[C@H]2C)cc1 | 0.361
COc1ccc(C#Cc2ccc3c(c2)[C@]2(C(=O)N3)[C@H](C(=O)O)[C@H]3C(=O)O[C@H](c4ccccc4)[C@H](c4ccccc4)N3[C@@H]2c2ccc(O)cc2)cc1 | -0.521
COCCOC(=O)N1C(=O)[C@@]2(c3ccccc31)[C@H](c1ccc(O)cc1)N1[C@H](c3ccccc3)[C@H](c3ccccc3)OC(=O)[C@H]1[C@@H]2C(=O)N1CCN(c2ncccn2)CC1 | 1.43
C=C(/C(=C/C[C@H](OC(=O)c1ccncc1)c1ccc(CO)o1)c1cnc2ccccc2c1)C(C)C | 1.18

Problem: # get_value(readout='composite z-score', item= COc1ccc([Si](C)(C)[C@@H]2[C@@H](CCO)O[C@]3(C(=O)N(Cc4ccccc4)c4ccc(N5CCOC5=O)cc43)[C@H]2C)cc1 )
Result: 0.19

Problem: # get_value(readout='composite z-score', item= CCCCC(=C=CC[C@H](O)c1ccc(OCCO)cc1)CCO )
Result: -0.674

Problem: # get_value(readout='composite z-score', item= C=C[C@@H](OC)[C@H](OC(=O)Nc1ccc(OC)cc1)c1ccc(O)c(F)c1 )
Result: 0.659

Problem: # get_value(readout='composite z-score', item= O=C1O[C@H](c2ccccc2)[C@H](c2ccccc2)N2[C@H]1[C@@H](C(=O)O)[C@]1(C(=O)Nc3ccc(C#CCCO)cc31)[C@H]2c1ccccc1OCCO )
Result: -0.0212

Problem: # get_value(readout='composite z-score', item= O=C1N(CCS(=O)(=O)c2ccccc2)c2ccccc2[C@H]2OC(c3ccc(OCCCO)cc3)=N[C@@]12Cc1ccccc1 )
Result: 1.75

Problem: # get_value(readout='composite z-score', item= COCCOC(=O)N1C(=O)[C@@]2(c3cc(C#CC4=CCCCC4)ccc31)[C@H](C(=O)Nc1nc3ccccc3s1)[C@H]1C(=O)O[C@H](c3ccccc3)[C@H](c3ccccc3)N1[C@@H]2c1ccc(O)cc1 )
Result: 1.7

Problem: # get_value(readout='composite z-score', item= C=C(COC)/C(=C/C[C@H](OC(=O)c1ccncc1)c1ccccc1OCCO)c1cc(C(=O)OC)ccc1OC )
Result: 0.66

Problem: # get_value(readout='composite z-score', item= CC1CC/C=C\[C@H]2OC34C=CCN(c5ccc6ccccc6c5)C(=O)[C@H]3N(CCCO)C(=O)[C@@H]4C2C(=O)O1 (stereo partly drawn) )
Result: -1.86

Problem: # get_value(readout='composite z-score', item= COc1cc(OC)c(C(O)C2C=CC3C(=O)N(Cc4ccccc4)C(=O)C3N2n2cnnc2)cc1Br (stereo not drawn) )
Result: -0.148

Problem: # get_value(readout='composite z-score', item= NC(=O)NCC#Cc1ccc2c(c1)[C@]1(C(=O)N2)[C@H](c2ccccc2OCCO)N2[C@H](c3ccccc3)[C@H](c3ccccc3)OC(=O)[C@H]2[C@@H]1C(=O)O )
Result: 0.387

Problem: # get_value(readout='composite z-score', item= CC1=C2[C@@H](CCc3ccccc3)OB(O)C[C@@H]2[C@@H]2C(=O)N(C)C(=O)[C@@H]2C1 )
Result: 0.509

Problem: # get_value(readout='composite z-score', item= C=CC[C@@H](OC(=O)Nc1ccc(SC)cc1)c1ccc(O)c(F)c1 )
Result: 1.11

Problem: # get_value(readout='composite z-score', item= [N-]=[N+]=Nc1ccccc1C[C@@]1(C(=O)NCCN2CCOCC2)N=C(c2ccc(OCCCO)cc2)O[C@@H]1c1ccccc1N=[N+]=[N-] )
Result: 0.752

Problem: # get_value(readout='composite z-score', item= [N-]=[N+]=Nc1ccccc1[C@H]1OC(c2ccc(OCCCO)cc2)=N[C@@]1(Cc1ccccc1)C(=O)NCCN1CCOCC1 )
Result: 0.989

Problem: # get_value(readout='composite z-score', item= CCCCN1CC=CC23O[C@@H]4/C=C\CCCOC(=O)C4[C@H]2C(=O)N(CCO)[C@@H]3C1=O (stereo partly drawn) )
Result: -1.33

Problem: # get_value(readout='composite z-score', item= CC(C)C(CO)N1C(=O)[C@@H]2C3C(=O)OCCC/C=C\[C@H]3OC23C=CCN(c2ccc4ccccc4c2)C(=O)[C@@H]13 (stereo partly drawn) )
Result: -1.02

Problem: # get_value(readout='composite z-score', item= COCCOC(=O)N1C(=O)[C@@]2(c3cc(C#CCCO)ccc31)[C@H](c1ccc(OCCO)cc1)N1[C@H](c3ccccc3)[C@H](c3ccccc3)OC(=O)[C@H]1[C@@H]2C(=O)Nc1nc2ccccc2s1 )
Result: 0.759

Problem: # get_value(readout='composite z-score', item= CC1=C2[C@@H](CCc3ccccc3)OB(O)C[C@@H]2[C@@H]2C(=O)N(Cc3ccccc3)C(=O)[C@@H]2C1 )
Result: 0.33
